# assayed_system: Progesterone receptor (Homo sapiens)
# experimental_details: qHTS assay to identify small molecule agonists of the progesterone receptor (PR) signaling pathway (AID 1346784); note: nearly all actives have a fitted effect of over 30% in size
# assay_setup: PR-UAS-bla HEK293T, beta-lactamase FRET ratio, 16 h; series mostly up to 92.4 µM
# Description: U.S. Tox21 Program National Center for Advancing Translational Sciences [NCATS] NIH Chemical Genomics Center [NCGC] U.S. Environmental Protection Agency [EPA] National Institutes of Environmental Health Sciences [NIEHS] National Toxicology Program [NTP] U.S. Food and Drug Administration [FDA] […] Endocrine disrupting chemicals (EDCs) and their interactions with steroid hormone receptors like PR causes disruption of normal endocrine function. […]
Records with an inconclusive call do not appear. Activity calls are given as the source filed them. Calls come from the whole dose curve.
Pick from Y = active, N = inactive when you respond.

These recorded examples may help you get a feel for the data.
CCCCCCOC(=O)CCCCCCCC(=O)OCCCCCC ... N
CC1=CC(=O)CC(C)(C)C1(O)/C=C/C(C)=C\C(=O)O (stereo unspecified) ... N
Nc1ccc(C(=O)OCCCOC(=O)c2ccc(N)cc2)cc1 ... N

-- ask Field: outcome | Entry: NC(=O)Cn1c(=O)cc(CCN2CCN(c3nccc4sccc34)CC2)c2ccc(F)cc21
-- reply N

-- ask Call for entry C/C(=N/NC(=O)c1ccncc1)C(=O)O :
-- reply N

-- ask Lab log entry: CCC(C(=O)OCCOCCN(CC)CC)c1ccccc1 (stereo unspecified) — outcome as called in the assay?
-- reply N
